Assay: chemical genetic growth profiling, strain panel (AID 1159580);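 note: tested at 20 µM; growth read once vehicle control cultures reached saturation at 30 °C; 1 = growth at the plate median or of vehicle wells; lower values mean less growth of the strain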
Details: S. cerevisiae deletion strains, growth OD, locus YNL224C, strain SQS1, stronger effect = lower value
Hit rate of the full screen: of about 5,500 compounds, about 2,000 (36%) were called active. Another 18% or so got no clear call; they are omitted. The list shows a part of the results.
normalized growth reference
Give only the figure.

Solved entries (count: 8):
C=CCN1CCc2c(cc(O)c(O)c2Cl)C(c2ccccc2)C1 (stereo not drawn)	1.04
OC1(c2ccc(Cl)cc2)CCN(Cc2c[nH]c3ccccc23)CC1	1.03
CC(C(=O)O)c1cccc(C(=O)c2ccccc2)c1 (stereo not drawn)	0.997
C=CCN1CCc2c(cc(O)c(O)c2Br)[C@@H](c2ccccc2)C1	1.02
COc1ccc(CCNC[C@@H](O)c2ccc(O)cc2)cc1OC	0.989
CC(C)(C)c1onc(OCP(=O)(O)O)c1CC(N)C(=O)O (stereo not drawn)	1.01
CCN(CC)CCCC(C)Nc1ccnc2cc(Cl)ccc12 (stereo not drawn)	1
C[C@@H]1O[C@@H](O[C@H]2C[C@@H](O)[C@]3(CO)[C@H]4[C@H](O)C[C@]5(C)[C@@H](C6=CC(=O)OC6)CC[C@]5(O)[C@@H]4CC[C@]3(O)C2)[C@H](O)[C@H](O)[C@H]1O	0.988

Entry CN1CCC(=C2c3ccccc3C=Cc3ccccc32)CC1 , normalized growth reported as 0.995

Entry Cc1cccc(C2CN(C)CCc3c2cc(O)c(O)c3Cl)c1 (stereo not drawn) , normalized growth reported as 1.01

Entry COc1ccc(OC)c(C(O)C(C)N)c1 (stereo not drawn) , normalized growth reported as 1.01

This collection of values is drawn from PubChem BioAssay AID1159580.
